tested on: biotinyl-Leu-oxazolone; assay: self-aminoacylation, catalytic enhancement (BLO) (fold over background); higher = more active; k-Seq, kA / k0A0; sequences stand for … in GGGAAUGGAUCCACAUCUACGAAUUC…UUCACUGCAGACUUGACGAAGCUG
Variants at the floor of the assay were thinned out.
readout kind: self-aminoacylation
Number, no unit, nothing else.

CUUCUUCAAACAAUCCGUCUG [Fam1A.1 aminoacylation ribozyme variant] = 0.923
CUACUUAAAACAAUCGGGCUG [Fam1A.1 aminoacylation ribozyme variant] = 0.999
AUUCUCCUAGGUCAUCGGGUG [Fam2.2 aminoacylation ribozyme variant] = 17.7

Query: Data request, read-out self-aminoacylation, for CAACAAUUCAAGCAAUCGGUC [Fam1B.1 aminoacylation ribozyme variant]
Response: 1.01

Query: Data request, read-out self-aminoacylation, for CUACUUCAAACUAUUGGUCUG [Fam1A.1 aminoacylation ribozyme variant]
Response: 0.92

Query: Data request, read-out self-aminoacylation, for CAACACUUCAAGCAACCGGUC [Fam1B.1 aminoacylation ribozyme variant]
Response: 1.2

Query: Data request, read-out self-aminoacylation, for AAGUUUCCGAAUAGUCGCAAG [Fam3.1 aminoacylation ribozyme variant]
Response: 1.7

Query: Data request, read-out self-aminoacylation, for ACGUUUGGUAAUAGUCGCAAG [Fam3.1 aminoacylation ribozyme variant]
Response: 2.1

Query: Data request, read-out self-aminoacylation, for AUUCAGCUAGGCCAUCGGGUG [Fam2.2 aminoacylation ribozyme variant]
Response: 12.4

Query: Data request, read-out self-aminoacylation, for GAGUUUGCUAACAGUCGCAAG [Fam3.1 aminoacylation ribozyme variant]
Response: 1.3

Query: Data request, read-out self-aminoacylation, for AAGUUUGCUAAUAGGCGGAAG [Fam3.1 aminoacylation ribozyme variant]
Response: 0.675

Query: Data request, read-out self-aminoacylation, for CUUCACCUAGGUCAUCGGAUG [Fam2.2 aminoacylation ribozyme variant]
Response: 0.891

Query: Data request, read-out self-aminoacylation, for AUCCACCUAGGUCAGCGGGUG [Fam2.2 aminoacylation ribozyme variant]
Response: 5.2

###

A collection of sequences and their measured self-aminoacylation
tested on: biotinyl-Met-oxazolone; assay: self-aminoacylation, catalytic enhancement (BMO) (fold over background); higher = more active; k-Seq, kA / k0A0; sequences stand for … in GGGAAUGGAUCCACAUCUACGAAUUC…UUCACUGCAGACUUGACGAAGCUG
This sample holds only a part of the variants without activity.
Number, no unit, nothing else.

Query: Data request, read-out self-aminoacylation, for AUUACCCUGGACACCGAGUGA [Fam2.1 aminoacylation ribozyme variant]
Response: 4.14

Query: Data request, read-out self-aminoacylation, for CCACAAUUCAAGAAAUCGGUC [Fam1B.1 aminoacylation ribozyme variant]
Response: 0.78

Query: Data request, read-out self-aminoacylation, for AAGUUUGCAAAUAGUCUCAAG [Fam3.1 aminoacylation ribozyme variant]
Response: 1.12

Query: Data request, read-out self-aminoacylation, for AUCACCCUGGUCCUCGAGUGA [Fam2.1 aminoacylation ribozyme variant]
Response: 6.62

Query: Data request, read-out self-aminoacylation, for AUUCACCUAGGUCAGGGGGUG [Fam2.2 aminoacylation ribozyme variant]
Response: 2.67

###

test system: biotinyl-Trp-oxazolone; test: self-aminoacylation, catalytic enhancement (BWO) (fold over background); higher = more active; k-Seq, kA / k0A0; sequences stand for … in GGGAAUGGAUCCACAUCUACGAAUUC…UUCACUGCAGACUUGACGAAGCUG
This sample holds only a part of the variants without activity.
readout kind: self-aminoacylation
Number, no unit, nothing else.

As a guide, the following entries are already answered.
CAACAAUUCAAGCAAUCGGUC [Fam1B.1 aminoacylation ribozyme variant] = 1.31
AGUCACCUAGUUCAUCGGGUG [Fam2.2 aminoacylation ribozyme variant] = 5.16
AUUACCAUUGUCAUCGAGUGA [Fam2.1 aminoacylation ribozyme variant] = 10.4
AUAUUUGCUAAUAGUCGCAAG [Fam3.1 aminoacylation ribozyme variant] = 1.75
AUUACGCUGGUCAUGGAGUGA [Fam2.1 aminoacylation ribozyme variant] = 3.44

Query: Data request, read-out self-aminoacylation, for AUCCACCUAGGUCAUCGGUUG [Fam2.2 aminoacylation ribozyme variant]
Response: 1.84

Query: Data request, read-out self-aminoacylation, for CAACUUCAACCAAUCGGUCUG [Fam1A.1 aminoacylation ribozyme variant]
Response: 33.2

Query: Data request, read-out self-aminoacylation, for AAGUUUGCUAAUACUUGCAAG [Fam3.1 aminoacylation ribozyme variant]
Response: 0.685

Query: Data request, read-out self-aminoacylation, for CUACUUCAAACAAUCGGUAUG [Fam1A.1 aminoacylation ribozyme variant]
Response: 10.1

Query: Data request, read-out self-aminoacylation, for AAGUCUGCUAAUAGUAGCAAG [Fam3.1 aminoacylation ribozyme variant]
Response: 1.67

###

system: biotinyl-Phe-oxazolone; assay: self-aminoacylation, catalytic enhancement (BFO) (fold over background); higher = more active; k-Seq, kA / k0A0; sequences stand for … in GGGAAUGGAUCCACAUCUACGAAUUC…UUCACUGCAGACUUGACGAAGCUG
Fewer inactive variants are shown than the library holds.
Label rule, in plain words: self-aminoacylation of 1 and up is 1, under 1 is 0.

CUAGUACAAACAAUCGGUCUG [Fam1A.1 aminoacylation ribozyme variant] = 0
CUACUUCAAACAACGGGUCUG [Fam1A.1 aminoacylation ribozyme variant] = 0
AUUCAGCUAGGUCAUCGGGGG [Fam2.2 aminoacylation ribozyme variant] = 1

Query: Identify whether the reported self-aminoacylation of the following sequence is 1 or greater: AUUACUAUGGUCAUCGAGUGA [Fam2.1 aminoacylation ribozyme variant]
Response: 1

Query: Identify whether the reported self-aminoacylation of the following sequence is 1 or greater: CUACUUCAAACUAUUGGUCUG [Fam1A.1 aminoacylation ribozyme variant]
Response: 0

Query: Identify whether the reported self-aminoacylation of the following sequence is 1 or greater: AAGUUUGCUAAUAGUGGUAAG [Fam3.1 aminoacylation ribozyme variant]
Response: 0

Query: Identify whether the reported self-aminoacylation of the following sequence is 1 or greater: AUUCAACUAGGUCAACGGGUG [Fam2.2 aminoacylation ribozyme variant]
Response: 1

Query: Identify whether the reported self-aminoacylation of the following sequence is 1 or greater: CAACUUCCAACAAUCGGUCUG [Fam1A.1 aminoacylation ribozyme variant]
Response: 1

###

tested on: biotinyl-Ile-oxazolone; assay: self-aminoacylation, catalytic enhancement (BIO) (fold over background); higher = more active; k-Seq, kA / k0A0; sequences stand for … in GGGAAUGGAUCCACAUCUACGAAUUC…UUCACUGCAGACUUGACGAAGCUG
This sample holds only a part of the variants without activity.
readout kind: self-aminoacylation
Number, no unit, nothing else.

AUUACCCUGGUAAUCUAGUGA [Fam2.1 aminoacylation ribozyme variant] = 5.57
AUUACCCUGGUCAUCGCGAGA [Fam2.1 aminoacylation ribozyme variant] = 2.17
AUUCACCUACGUCUUCGGGUG [Fam2.2 aminoacylation ribozyme variant] = 2.44
AUUACUCUGGUUAUCGAGUGA [Fam2.1 aminoacylation ribozyme variant] = 4.17

Next:
Query: Data request, read-out self-aminoacylation, for AAGUCUGCUCAUAGUCGCAAG [Fam3.1 aminoacylation ribozyme variant]
Response: 1.16

###

test system: biotinyl-Ile-oxazolone; experiment: self-aminoacylation, catalytic enhancement (BIO) (fold over background); higher = more active; k-Seq, kA / k0A0; sequences stand for … in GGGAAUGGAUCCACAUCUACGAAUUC…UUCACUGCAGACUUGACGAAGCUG
Fewer inactive variants are shown than the library holds.
readout kind: self-aminoacylation
Number, no unit, nothing else.

As a guide, the following entries are already answered.
GUACACCUAGGUCAUCGGGUG [Fam2.2 aminoacylation ribozyme variant] = 2.54
AUUGACCUAGGUCAGCGGGUG [Fam2.2 aminoacylation ribozyme variant] = 2.61
CUACUUCAAACAAUCGGCCAG [Fam1A.1 aminoacylation ribozyme variant] = 1.44
CCACGCGUCAAGCAAUCGGUC [Fam1B.1 aminoacylation ribozyme variant] = 0.827
CCACACUUCAAGUAGUCGGUC [Fam1B.1 aminoacylation ribozyme variant] = 0.96

Query: Data request, read-out self-aminoacylation, for CUUACCCUGGUCAUAGAGUGA [Fam2.1 aminoacylation ribozyme variant]
Response: 2.86

Query: Data request, read-out self-aminoacylation, for CUACUUCAAACCAUCGUUCUG [Fam1A.1 aminoacylation ribozyme variant]
Response: 0.689

Query: Data request, read-out self-aminoacylation, for UAGUUUGGUAAUAGUCGCAAG [Fam3.1 aminoacylation ribozyme variant]
Response: 1.73

Query: Data request, read-out self-aminoacylation, for AUUCGACUAGGUCAUCGGGUG [Fam2.2 aminoacylation ribozyme variant]
Response: 4.46

Query: Data request, read-out self-aminoacylation, for AUUCACCGAGGUCAUGGGGUG [Fam2.2 aminoacylation ribozyme variant]
Response: 6.15

Query: Data request, read-out self-aminoacylation, for CUACUUCAAAGAUUCGGUCUG [Fam1A.1 aminoacylation ribozyme variant]
Response: 1.01

Query: Data request, read-out self-aminoacylation, for AUGCUCCUAGGUCAUCGGGUG [Fam2.2 aminoacylation ribozyme variant]
Response: 5.26

Query: Data request, read-out self-aminoacylation, for CCACACGUCAAGCAAUCUGUC [Fam1B.1 aminoacylation ribozyme variant]
Response: 0.54

Query: Data request, read-out self-aminoacylation, for CCACACUUCCAGCAAUCGUUC [Fam1B.1 aminoacylation ribozyme variant]
Response: 1.09

Query: Data request, read-out self-aminoacylation, for AAUUUUGCUAAUAGUCGCAAU [Fam3.1 aminoacylation ribozyme variant]
Response: 2.95

Query: Data request, read-out self-aminoacylation, for AAGUCUGCGAAUAGUCGCAAG [Fam3.1 aminoacylation ribozyme variant]
Response: 1

Query: Data request, read-out self-aminoacylation, for CCACAGAUCAAGCAAUCGGUC [Fam1B.1 aminoacylation ribozyme variant]
Response: 1.01

Query: Data request, read-out self-aminoacylation, for AUUACCCUGGUCAACGAGUGC [Fam2.1 aminoacylation ribozyme variant]
Response: 0.908
